The values you see were collected from ChEMBL document CHEMBL1833832.

- method_description: Half life in Han Wistar rat at 0.25 mg/kg, iv
- Type: ADME, organism-based
- Design: dose 0.25 mg/kg, route intravenous
- cond: in vivo
measurement_kind: half-life (min)
Write the answer as a number in min, unit excluded.

QUERY: Any idea what half-life was measured for CC(=O)O.Cc1cc(CCCCOCCCCCCNC[C@H](O)c2ccc(O)c(CO)c2)cc(NC(N)=O)c1 ?
RESULT: 54

====

- target_desc: Beta-2 adrenergic receptor (Homo sapiens)
- Sequence (P07550 whole entry): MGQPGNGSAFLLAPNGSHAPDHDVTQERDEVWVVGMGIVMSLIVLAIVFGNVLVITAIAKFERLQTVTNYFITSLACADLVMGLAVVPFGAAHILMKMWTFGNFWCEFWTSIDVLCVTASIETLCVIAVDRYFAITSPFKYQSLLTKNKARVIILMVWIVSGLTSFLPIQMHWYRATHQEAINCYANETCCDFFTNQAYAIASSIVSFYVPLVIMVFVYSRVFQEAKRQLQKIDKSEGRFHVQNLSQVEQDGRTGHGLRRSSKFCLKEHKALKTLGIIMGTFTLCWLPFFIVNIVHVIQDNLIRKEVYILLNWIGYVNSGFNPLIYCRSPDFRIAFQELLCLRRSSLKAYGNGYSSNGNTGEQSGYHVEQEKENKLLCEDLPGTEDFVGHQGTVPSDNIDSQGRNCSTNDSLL
- method_description: Agonist activity at human beta2 receptor expressed in CHO cells assessed as cAMP accumulation
# Lookup of reported EC50 keyed by entry
Your answer is read as nM, so omit the unit and give the number.

Previously resolved entries follow.
CC(=O)O.NC(=O)NCc1cccc(CCCCOCCCCCCNC[C@H](O)c2ccc(O)c(CO)c2)c1 :: 0.501
CC(=O)O.O=C(Nc1cccc(CCCCOCCCCCCNC[C@H](O)c2ccc(O)c(CO)c2)c1)NC1CCCCC1 :: 1
CC(=O)O.CCNC(=O)Nc1cccc(CCCCOCCCCCCNC[C@H](O)c2ccc(O)c(CO)c2)c1 :: 1
CC(=O)O.NC(=O)Nc1cccc(CCCCOCCCCCCNC[C@H](O)c2ccc(O)c(CO)c2)c1 :: 0.794
CC(=O)O.CCNC(=O)NCc1cccc(CCCCOCCCCCCNC[C@H](O)c2ccc(O)c(CO)c2)c1 :: 0.631

Okay, next one:
QUERY: Recorded EC50 of CC(=O)O.NC(=O)Nc1cc(CCCCOCCCCCCNC[C@H](O)c2ccc(O)c(CO)c2)cc(C(F)(F)F)c1 , please.
RESULT: 1
